Numbers sourced from patent EP0981626B1.

Notes on MIC obtained with Septoria nodorum (BS171).

Reference set, count: 3
compound	assayed_system	MIC
O=C(Oc1ccccc1)n1c(C(F)(F)F)nc2c(Br)c(Br)c(Br)cc21 [Compound 2]	Septoria nodorum (BS171)	> 250 µg/mL
N#Cc1sc2c(=O)c3ccccc3c(=O)c=2sc1C#N [Compound 4]	Septoria nodorum (BS171)	0 to 10 µg/mL
CC(C)CCC(C)OC(=O)n1c(C(F)(F)F)nc2c(Br)c(Br)c(Br)cc21 (stereo not shown) [Compound 3]	Septoria nodorum (BS171)	100 to 150 µg/mL

Given the entry O=C(Oc1ccccc1)n1c(C(F)(F)F)nc2cc(Br)c(Cl)cc21 [Compound 1] , what MIC was observed with Septoria nodorum (BS171)?
100 to 150 µg/mL

* * *

test system: recombinant IPMDH (3-isopropylmalate dehydrogenase); assay: biochemical screen for inhibitors of recombinant IPMDH (spectrometric NADH assay at 340 nm); set-up: species or system Septoria nodorum; conditions: first test, buffer as control
% inhibition at 3.3 ppm by entry:
Dear colleague, please return just the value in %, with no unit written.

Solved cases below.
compound	assayed_system	quantity	test_result
N#Cc1sc2c(=O)c3ccccc3c(=O)c=2sc1C#N	recombinant IPMDH (3-isopropylmalate dehydrogenase)	% inhibition at 3.3 ppm	41
O=C(Oc1ccccc1)n1c(C(F)(F)F)nc2c(Br)c(Br)c(Br)cc21	recombinant IPMDH (3-isopropylmalate dehydrogenase)	% inhibition at 3.3 ppm	33
CC(C)CCC(C)OC(=O)n1c(C(F)(F)F)nc2c(Br)c(Br)c(Br)cc21 (stereo not shown)	recombinant IPMDH (3-isopropylmalate dehydrogenase)	% inhibition at 3.3 ppm	57

API: the following record is the query input.
State its % inhibition at 3.3 ppm on recombinant IPMDH (3-isopropylmalate dehydrogenase): "O=C(Oc1ccccc1)n1c(C(F)(F)F)nc2cc(Br)c(Cl)cc21"
33

* * *

tested on: recombinant IPMDH (3-isopropylmalate dehydrogenase); assay: biochemical screen for inhibitors of recombinant IPMDH (spectrometric NADH assay at 340 nm); set-up: species or system Septoria nodorum; conditions: repeat test, buffer as control
Measured % inhibition at 3.3 ppm, Repeat, listed per entry for reference.
Give the quantity in %, number only.

Consider the following illustrative entries.
compound	assayed_system	test_result
O=C(Oc1ccccc1)n1c(C(F)(F)F)nc2cc(Br)c(Cl)cc21 [Compound 1]	recombinant IPMDH (3-isopropylmalate dehydrogenase)	56
CC(C)CCC(C)OC(=O)n1c(C(F)(F)F)nc2c(Br)c(Br)c(Br)cc21 (stereo not shown) [Compound 3]	recombinant IPMDH (3-isopropylmalate dehydrogenase)	20
N#Cc1sc2c(=O)c3ccccc3c(=O)c=2sc1C#N [Compound 4]	recombinant IPMDH (3-isopropylmalate dehydrogenase)	66

Consider the additional compound presented here.
Entry under review: O=C(Oc1ccccc1)n1c(C(F)(F)F)nc2c(Br)c(Br)c(Br)cc21 [Compound 2] . Reported % inhibition at 3.3 ppm, Repeat?
42
